Overview of reported OD450nm across a group of binders:
biological target: HRgpA-6H (Porphyromonas gingivalis) (UniProt P28784); test: ELISA, FASEBA Fab on coated HRgpA-6H

# Binder, OD450nm
data = [
    ("KB001 mouse Fab VL T52K (Fab, V domains shown) VH: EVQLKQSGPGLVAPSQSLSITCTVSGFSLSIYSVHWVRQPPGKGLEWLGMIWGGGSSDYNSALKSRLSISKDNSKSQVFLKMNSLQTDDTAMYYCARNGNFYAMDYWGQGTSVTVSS VL: QIVLTQSPAIMSASLGERVTMTCTASSSVSSSFLHWYQQKPGSSPQLWIYSKSNLASGVPARFSGSGSGTSYSLTISSMEAEDAATYYCHQYHHSPYIYTFGGGTKLEIK", 0.681),
    ("KB001 mouse Fab VL T100D (Fab, V domains shown) VH: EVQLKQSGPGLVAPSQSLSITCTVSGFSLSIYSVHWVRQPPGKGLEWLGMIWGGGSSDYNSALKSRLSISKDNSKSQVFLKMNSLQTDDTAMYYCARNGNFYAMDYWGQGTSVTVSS VL: QIVLTQSPAIMSASLGERVTMTCTASSSVSSSFLHWYQQKPGSSPQLWIYSTSNLASGVPARFSGSGSGTSYSLTISSMEAEDAATYYCHQYHHSPYIYDFGGGTKLEIK", 0.645),
    ("KB001 mouse Fab VL S28T/S12R (Fab, V domains shown) VH: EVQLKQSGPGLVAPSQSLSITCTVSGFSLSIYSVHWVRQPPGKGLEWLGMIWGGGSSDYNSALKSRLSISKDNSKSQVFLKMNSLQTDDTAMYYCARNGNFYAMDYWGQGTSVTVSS VL: QIVLTQSPAIMRASLGERVTMTCTASSTVSSSFLHWYQQKPGSSPQLWIYSTSNLASGVPARFSGSGSGTSYSLTISSMEAEDAATYYCHQYHHSPYIYTFGGGTKLEIK", 0.747),
]
